Recorded values, source the supplement of paper PMC13380429.

Listed compounds paired with reported cell viability
# Test system: Vero E6
# assay-text: cell viability relative to DMSO; higher = less toxic
# study-conditions: 72 h; 1 nM

>  <compound>
C[C@H](NC(=O)Cc1cc(F)cc(F)c1)C(=O)N[C@H](C(=O)OC(C)(C)C)c1ccccc1 [DAPT]

>  <cell viability / %>
98.3

$$$$
>  <compound>
Nc1nc(F)nc2c1ncn2[C@@H]1O[C@H](CO)[C@@H](O)[C@@H]1O [fludarabine]

>  <cell viability / %>
93.9

$$$$
>  <compound>
CN(C)CC/C=C1\c2ccccc2CSc2ccccc21 [dosulepin]

>  <cell viability / %>
93.4

$$$$
